# Test system: SW-620
# assayText: Antiproliferative activity against SW620 cells after 72 hrs by MTT assay
# Format: functional, cell-based
# details: Homo sapiens, SW-620, 72 h
This listing pairs molecules with measured pIC50.
Scale explanation: pIC50 corresponds to minus log10 of a concentration expressed in moles per litre.

Please review the entries below; each comes with its answer.
molecule | pIC50
O=C(NCC(=O)N1CCOCCOCCN(C(=O)CNC(=O)OCc2ccccc2)CCOCCOCC1)OCc1ccccc1 | 4.40
CC(C)[C@@H]1NC(=O)[C@H](C)OC(=O)[C@@H](C(C)C)NC(=O)[C@@H](C(C)C)OC(=O)[C@H](C(C)C)NC(=O)[C@H](C)OC(=O)[C@@H](C(C)C)NC(=O)[C@@H](C(C)C)OC(=O)[C@H](C(C)C)NC(=O)[C@H](C)OC(=O)[C@@H](C(C)C)NC(=O)[C@@H](C(C)C)OC1=O | 10.00
c1ccc2c(c1)OCCOCCOc1ccccc1OCCOCCO2 | 4.77
C1CCC2OCCOCCOC3CCCCC3OCCOCCOC2C1 (centres undefined) | 5.15
CC(C)(C)c1ccc(O)c(O)c1 | 4.66
CC(C)(C)c1cc(O)c(OCCOCCOc2c(O)cc(C(C)(C)C)cc2C(C)(C)C)c(C(C)(C)C)c1 | 4.72

Exam item: So what does the record say about pIC50 for `c1ccc2c(c1)OCCOCCOCCOCCOc1ccccc1OCCOCCOCCOCCO2` ?
Marked response: 4.77

Exam item: For the molecule `c1ccc(CNCCOCCOCCNCc2ccccc2)cc1` , what pIC50 is on record?
Marked response: 4.41

Exam item: Would you kindly share the measured pIC50 for `c1ccc(CN2CCOCCOCCN(Cc3ccccc3)CCOCCOCC2)cc1` ?
Marked response: 5.22

Exam item: So what's the measured pIC50 for this one? `CC(C)(C)c1cc2c(c(C(C)(C)C)c1)OCCOCCOc1c(cc(C(C)(C)C)cc1C(C)(C)C)OCCOCCO2`
Marked response: 4.72

Exam item: Sample `c1ccc2c(c1)OCCOCCOCCOc1ccccc1OCCOCCOCCO2` — what was its pIC50?
Marked response: 4.14

---

# Test system: SW-620
# assayText: Antiproliferative activity against SW620 cells after 72 hrs by MTT assay
# Type: functional, cell-based
# details: Homo sapiens, SW-620, 72 h
experimentalEndpoint: IC50

molecularString | obsValue
COC(=O)[C@H](NC(=O)CN1CCOCCOCCN(CC(=O)N[C@@H](C(=O)OC)c2ccccc2)CCOCCOCC1)c1ccccc1 | ≥ 100 µM
OCCN(CCO)Cc1ccccc1 | > 100 µM

Let's switch to this compound now.
Exam item: Lab request: please report IC50 under test system SW-620 for `c1ccc(CN2CCOCCOCCOCCOCC2)cc1`
Marked response: > 100 µM
